Where do the numbers come from? From PubChem BioAssay (Tox21).

Assay: A CellTox Green Cytotoxicity Assay to monitor cytotoxicity in HepG2 cells - 32 hour (AID 1224883); also: nearly all actives have a fitted effect of over 50% in size
Settings: CellTox Green fluorescence; series mostly up to 76.8 µM
Inconclusive results are not listed. Calls of active or inactive are those of the source. Calls follow the shape of the dose curve; as a rule, active = well fitted activation curve with a large enough effect in the repeat runs; inconclusive = weak or mixed curves; inactive = flat fitted curve, though single readings scatter.
Select the matching outcome among TRUE = active, FALSE = inactive

In: What outcome does the record of this test show for CCNCC ?
Out: FALSE

In: Same read-out for Cn1c(-c2ccccc2)cc(-c2ccccc2)[n+]1C ?
Out: FALSE

In: Cool, now Nc1ccc([N+](=O)[O-])cc1N
Out: FALSE

In: Same for OCCOCCO
Out: FALSE

In: Now this one: CC1CC(=O)O1 (stereo unspecified)
Out: FALSE

---
In: Tell me the recorded outcome of this test for CC(C)=CC1C(C(=O)OCN2C(=O)C3=C(CCCC3)C2=O)C1(C)C (stereo unspecified) .
Out: FALSE

In: Item: CCNc1nc(Cl)nc(NC(C)(C)C#N)n1
Out: FALSE

In: Another compound to look at: CCCCSP(=O)(SCCCC)SCCCC
Out: FALSE

In: What do you have for N#CCCCCC#N ?
Out: FALSE

In: Continue with N#Cc1cccnc1
Out: FALSE

In: Likewise for CC[n+]1c(-c2ccccc2)c2cc(N)ccc2c2ccc(N)cc21 ?
Out: FALSE

In: Thanks! And ClC(Cl)=C(Cl)C(Cl)=C(Cl)Cl ?
Out: FALSE

In: [Cl-].[Cl-].[Cl-].[Fe+3] , same question.
Out: FALSE

###

Biological target: Cytochrome P450 2C19 (Homo sapiens) (UniProt P33261)
Sequence (P33261 whole entry, looked up): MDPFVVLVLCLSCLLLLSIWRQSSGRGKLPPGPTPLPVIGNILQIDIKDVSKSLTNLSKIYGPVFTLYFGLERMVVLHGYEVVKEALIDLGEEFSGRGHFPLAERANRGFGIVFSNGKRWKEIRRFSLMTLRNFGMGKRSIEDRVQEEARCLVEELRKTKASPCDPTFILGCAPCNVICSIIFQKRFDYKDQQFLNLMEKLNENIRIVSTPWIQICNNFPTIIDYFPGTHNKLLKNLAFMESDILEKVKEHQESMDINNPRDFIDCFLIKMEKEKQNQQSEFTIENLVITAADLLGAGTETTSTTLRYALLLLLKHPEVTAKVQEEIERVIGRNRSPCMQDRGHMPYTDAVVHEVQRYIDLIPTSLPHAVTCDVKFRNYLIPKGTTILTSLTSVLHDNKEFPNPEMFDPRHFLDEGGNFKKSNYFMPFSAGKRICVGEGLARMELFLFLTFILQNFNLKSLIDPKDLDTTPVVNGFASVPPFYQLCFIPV
Test: Cytochrome P450 Family 2 Subfamily C Member 19 (CYP2C19) small molecule antagonists: luciferase reporter qHTS assay (AID 1671197); also: nearly all actives have a fitted effect of over 65% in size
Conditions: P450-Glo CYP2C19 enzyme, luciferin luminescence, 1 h; series mostly up to 115 µM
Records with an inconclusive call do not appear. Activity calls are given as the source filed them. Calls come from the whole dose curve; as a rule, active = well fitted inhibition curve with a large enough effect in the repeat runs; inconclusive = weak or mixed curves; inactive = no such curve, though single readings can be large or run the other way.
Give one outcome, nothing more. List: active, inactive

In: Called result for CCC1(c2ccc(N)cc2)CCC(=O)NC1=O (stereo unspecified)
Out: inactive

In: Could you do the same for [CH3][Sn]([Cl])([Cl])[Cl] , please?
Out: inactive

In: CC(C)(c1ccccc1)c1ccc(O)cc1 ?
Out: inactive

In: Would you kindly repeat that for O=C(O)c1nn(Cc2ccc(Cl)cc2Cl)c2ccccc12 ?
Out: inactive

In: Proceed to Cc1ccc([N+](=O)[O-])cc1
Out: inactive

Lab note: next molecule to report on.
In: Query: recorded result category for O=P(OCCCl)(OCCCl)OCCCl in this test
Out: active

###

Molecular target: Aryl hydrocarbon receptor (Homo sapiens)
Assay: qHTS assay to identify small molecule that activate the aryl hydrocarbon receptor (AhR) signaling pathway (AID 743085); also: nearly all actives have a fitted effect of over 15% in size;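 as to activation: HG2L7.5c1 human HepG2 liver cells with stably integrated DRE-driven firefly reporter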
Conditions: HepG2 AhR-luc (HG2L7.5c1), luciferase, 24 h; series mostly up to 70.3 µM
Results filed as inconclusive are left out. The source made the active and inactive calls. Calls come from the whole dose curve; as a rule, active = well fitted activation curve with a large enough effect in the repeat runs; inconclusive = weak or mixed curves; inactive = no such curve, though single readings can be large or run the other way.
API: response.call in active, inactive

In: What is the recorded call for this compound in the test? CC1CC(=O)O1 (configuration not stated)
Out: inactive

***
In: Record request — test call for CC(C)COC(=O)c1ccccc1C(=O)OCC(C)C
Out: inactive

In: And the next one, O=[N+]([O-])c1ccc(Cl)c([N+](=O)[O-])c1 ?
Out: inactive

In: Query NN=C(N)N next
Out: active

In: Same lookup for ClC(Cl)=C(Cl)C(Cl)=C(Cl)Cl , please.
Out: inactive

###

Experiment: qHTS RealTime-Glo MT Cell Viability Assay in HepG2 cells - 16 hour (AID 1224885); also: nearly all actives have a fitted effect of over 50% in size
Conditions: RealTime-Glo luminescence; series mostly up to 76.8 µM
Records with an inconclusive call do not appear. The source made the active and inactive calls. Calls follow the shape of the dose curve; as a rule, active = well fitted cell-killing curve with a large enough effect in the repeat runs; inconclusive = weak or mixed curves; inactive = flat fitted curve, though single readings scatter.
Write down the outcome that applies. Available outcomes: active, inactive

In: Assay result, entry CCNc1nc(Cl)nc(NC(C)(C)C#N)n1 — outcome?
Out: inactive

***
In: So what was the verdict on Brc1ccc(Br)cc1 in this test?
Out: inactive

In: Can you check N#Cc1nn(-c2c(Cl)cc(C(F)(F)F)cc2Cl)c(N)c1S(=O)C(F)(F)F (stereo not given) next?
Out: inactive

In: Repeat for the following molecule: OC(c1ccc(Cl)cc1)(c1cncnc1)c1ccccc1Cl (stereo not given)
Out: active

In: Query CN(C)c1nc(=O)n(C2CCCCC2)c(=O)n1C next
Out: inactive

In: Next up: COC(=O)Nc1nc2ccccc2[nH]1
Out: inactive

In: Same lookup for CCCCCCCCCC(CC)c1ccc(S(=O)(=O)O)cc1 (stereo not given) , please.
Out: inactive

In: Quick one: NN=C(N)N
Out: inactive

In: Next molecule up: O=C(O)c1nn(Cc2ccc(Cl)cc2Cl)c2ccccc12
Out: inactive

In: Repeat with Clc1ccccc1-c1nnc(-c2ccccc2Cl)nn1
Out: inactive

###

Molecular target: Nuclear receptor subfamily 1 group I member 3 (Homo sapiens)
Assay: qHTS assay to identify small molecule agonists of the constitutive androstane receptor (CAR) signaling pathway (AID 1224839);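 also: HepG2 cells stably carrying human CAR and a CYP2B6 luciferase reporter; nearly all actives have a fitted effect of over 15% in size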
Conditions: HepG2 hCAR CYP2B6-luciferase, agonist mode, 24 h; series mostly up to 92.4 µM
Records with an inconclusive call do not appear. The source made the active and inactive calls. Calls come from the whole dose curve; as a rule, active = well fitted activation curve with a large enough effect in the repeat runs; inconclusive = weak or mixed curves; inactive = no such curve, though single readings can be large or run the other way.
quantity: outcome

In: Requested read-out: outcome. Entry: CCCCOC(=O)COC(=O)c1ccccc1C(=O)OCCCC
Out: inactive

In: # iterate: C[N+](C)(C)C
Out: inactive

In: Proceed to [CH3][Sn]([Cl])([Cl])[Cl]
Out: inactive

###

Experiment: qHTS assay to identify small molecule antagonists of the peroxisome proliferator-activated receptor delta (PPARd) signaling pathway - cell viability counter screen (AID 743213); also: nearly all actives have a fitted effect of over 50% in size
Conditions: PPARd-bla HEK293H viability, CellTiter-Glo luminescence, 17 h; series mostly up to 62 µM
Records with an inconclusive call do not appear. Calls of active or inactive are those of the source. Calls come from the whole dose curve; as a rule, active = well fitted cell-killing curve with a large enough effect in the repeat runs; inconclusive = weak or mixed curves; inactive = no such curve, though single readings can be large or run the other way.
Answer with one of the outcomes given here: yes (1) for active, no (0) for inactive

In: Any idea what this test logged for CC1(C)C(C(=O)OC(C#N)c2cccc(Oc3ccccc3)c2)C1(C)C (stereo unspecified) ?
Out: no (0)

Turning now to a further record.
In: Returns: the outcome recorded for CC1=C(C(=O)Nc2ccccc2)SCCO1 in this assay.
Out: no (0)

###

Test: qHTS assay to identify small molecule agonists of the estrogen receptor alpha (ER-alpha) signaling pathway in the presence of an antagonist - cell viability counter screen (AID 1259386);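 also: cells exposed to compounds for 22 h at 37 °C before the viability read; nearly all actives have a fitted effect of over 30% in size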
Conditions: VM7Luc4E2 viability, CellTiter-Fluor fluorescence, 22 h; series mostly up to 92.4 µM
Records with an inconclusive call do not appear. The source made the active and inactive calls. Calls follow the shape of the dose curve; as a rule, active = well fitted cell-killing curve with a large enough effect in the repeat runs; inconclusive = weak or mixed curves, or effect the other way; inactive = no such curve, though single readings can be large or run the other way.
quantity: outcome

In: Entry CNC(=O)Oc1cccc2c1OC(C)(C)C2 has what outcome?
Out: inactive

In: Another compound to look at: CC(C)(O)C(=O)Nc1ccc([N+](=O)[O-])c(C(F)(F)F)c1
Out: inactive

In: Next up: CCCCCCCCCCCCCl
Out: inactive

In: And for ClC(Cl)=C(Cl)C(Cl)=C(Cl)Cl ?
Out: inactive

In: // next record CNC(=O)CSP(=S)(OC)OC
Out: inactive

---
In: I would be grateful if you could share the reported outcome for CCNCC .
Out: inactive

In: What do you get for O=S(=O)(O)C(F)(F)C(F)(F)C(F)(F)C(F)(F)C(F)(F)C(F)(F)C(F)(F)C(F)(F)F ?
Out: inactive

In: Now the compound COC(=O)Nc1nc2ccccc2[nH]1
Out: inactive

In: Try this compound too: CC(C)(O)C#N
Out: inactive

###

Assay: A CellTox Green Cytotoxicity Assay to monitor cytotoxicity in HepG2 cells - 32 hour (AID 1224883); also: nearly all actives have a fitted effect of over 50% in size
Conditions: CellTox Green fluorescence; series mostly up to 76.8 µM
Excerpt: National Center for Advancing Translational Sciences [NCATS] NIH Chemical Genomics Center [NCGC] U.S. Environmental Protection Agency [EPA] National Institutes of Environmental Health Sciences [NIEHS] National Toxicology Program [NTP] Cell-based models are critical for drug discovery. […] Viable cells produce no appreciable increases in fluorescence. Therefore, the fluorescence signal produced by the binding interaction with dead cell DNA is proportional to cytotoxicity. […]
Records with an inconclusive call do not appear. Active and inactive are the calls of the source. Calls follow the shape of the dose curve; as a rule, active = well fitted activation curve with a large enough effect in the repeat runs; inconclusive = weak or mixed curves; inactive = flat fitted curve, though single readings scatter.
The reply should be one of these categories: Yes (active), No (inactive)

In: // param item: CC(C)Nc1ccc(Nc2ccccc2)cc1 ; yields the recorded call
Out: Yes

New cases:
In: Could you check what this test reported for CCOP(=O)(OCC)OCC ?
Out: No

###

Experiment: qHTS assay to identify small molecule antagonists of the peroxisome proliferator-activated receptor delta (PPARd) signaling pathway - cell viability counter screen (AID 743213); also: nearly all actives have a fitted effect of over 50% in size
Settings: PPARd-bla HEK293H viability, CellTiter-Glo luminescence, 17 h; series mostly up to 62 µM
Inconclusive results are not listed. Active and inactive are the calls of the source. The call rests on the fitted dose curve; in most records, active means well fitted cell-killing curve with a large enough effect in the repeat runs; inconclusive means weak or mixed curves; inactive means no such curve, though single readings can be large or run the other way.
Please reply with one of these outcomes: 1.0 for active, 0.0 for inactive

# count of solved cases: 5
In: // return assay outcome for Nc1ccc([N+](=O)[O-])cc1N
Out: 0.0

In: Also, CSc1nc(NC(C)C)nc(NC(C)C)n1 please.
Out: 0.0

In: What would you report for CCCCOCCOC(C)=O ?
Out: 0.0

In: Here is the next molecule: CN(C)c1nc(=O)n(C2CCCCC2)c(=O)n1C
Out: 0.0

In: Continue with CC(C)Nc1ccc(Nc2ccccc2)cc1
Out: 1.0

More entries:
In: Which result was noted for this molecule in the test: O=C1Nc2ccc(Cl)cc2C(c2ccccc2)=NC1O (centres undefined)
Out: 0.0

In: Moving on to the next molecule: CC[n+]1c(-c2ccccc2)c2cc(N)ccc2c2ccc(N)cc21
Out: 0.0

In: Could you do the same for C[N+](C)(C)C , please?
Out: 0.0

In: What do we get for CCOP(=S)(OCC)SCSC(C)(C)C ?
Out: 0.0

In: Would you mind doing O=C(O)CF as well?
Out: 0.0

In: And Oc1ccc(Cl)cc1Cl ?
Out: 0.0

In: Request: O=NN1CCOCC1
Out: 0.0

In: Cool, now CC(C)Nc1nc(Cl)nc(NC(C)C)n1
Out: 0.0

In: Can you check CCCCOCC1CO1 (centres undefined) next?
Out: 0.0

In: Here is the next molecule: COc1ccc(O)c(C(C)(C)C)c1
Out: 0.0

In: Also, CCCCCCCCCc1ccc(O)cc1 please.
Out: 0.0

In: Please do the same for CCOP(=S)(OCC)OP(=S)(OCC)OCC as well.
Out: 0.0

In: Further, for COP(=O)(NC(C)=O)SC (centres undefined) ?
Out: 0.0

In: Another molecule to check: CCC(=O)Nc1ccc(Cl)c(Cl)c1
Out: 0.0
